Test: Oral bioavailability in Sprague-Dawley rat at 2.5 mg/kg
Assay type: ADME, organism-based
Settings: in vivo
Endpoint: bioavailability (%)

Please indicate bioavailability recorded for `CCC(C)(C)NS(=O)(=O)c1ccc(-c2sc(C(=O)N[C@H]3C[C@H](C(=O)O)C3)nc2CC2CCCCC2)c(Cl)c1C`
18

I = CC(C)(C)NS(=O)(=O)c1ccc(-c2sc(C(=O)N3CC4(C3)CS(=O)(=O)C4)nc2CC2CCCCC2)c(Cl)c1Cl
II = CC(C)(C)NS(=O)(=O)c1ncc(-c2sc(C(=O)N[C@H]3C[C@H](C(=O)O)C3)nc2CC2CCCCC2)c2ccccc12
Higher bioavailability between I and II ? Record your answer as the label of the chosen record.
I
